The measurements presented in this section are drawn from ChEMBL document CHEMBL1136862.

# tested-target: Serine/threonine-protein kinase Chk1 (Homo sapiens)
# protocol: Inhibition of C-terminal 6-His tagged human Chk1 at 100 uM by HTRF assay in presence of 0.1 mM ATP
measured-quantity: inhibition
# do not omit the unit; it follows the number

Study these solved cases before continuing.
>>> df
                                   compound                             tested_target  measured_quantity  result
0  CCCCC(Sc1nc2ccccc2c(=O)n1C)C(=O)N1CCC(C(N)=O)CC1 (stereo not given)  Serine/threonine-protein kinase Chk1 (Homo sapiens)         inhibition     48%
1  CCCCC(Sc1nc2ccccc2c(=O)n1-c1ccccc1)C(=O)N(CC)CC (stereo not given)  Serine/threonine-protein kinase Chk1 (Homo sapiens)         inhibition     62%
2  CCCCC(Sc1nc2ccccc2c(=O)n1C(C)C)C(=O)N1CCC(C(N)=O)CC1 (stereo not given)  Serine/threonine-protein kinase Chk1 (Homo sapiens)         inhibition     20%
3  CCCCC(Sc1nc2ccccc2c(=O)n1-c1ccccc1)C(=O)NC1CC2CCC1C2 (stereo not given)  Serine/threonine-protein kinase Chk1 (Homo sapiens)         inhibition      3%

# ---- query compound ----
Summary for this compound, CCCCC(Sc1nc2ccc(C)cc2c(=O)n1-c1cccc(Cl)c1)C(=O)N1CCC(C(N)=O)CC1 (stereo not given) : inhibition is 30%

---

# tested-target: Serine/threonine-protein kinase Chk1 (Homo sapiens) (UniProt O14757)
# protocol: Inhibition of C-terminal 6-His tagged human Chk1 at 100 uM by HTRF assay in presence of 0.1 mM ATP
measured-quantity: inhibition (%)
Give bare numbers, in %.

Use the examples below as a reference point.
                                   compound  units_text  recorded_number
0  CCCCC(Sc1nc2ccccc2c(=O)n1-c1cccnc1)C(=O)N1CCC(C(N)=O)CC1 (centres undefined)           %               35
1  CCCCC(Sc1nc2ccccc2c(=O)n1Cc1cccnc1)C(=O)N1CCC(C(N)=O)CC1 (centres undefined)           %               26
2  CCCCC(Sc1nc2ccccc2c(=O)n1-c1ccnc(Cl)c1)C(=O)N1CCC(C(N)=O)CC1 (centres undefined)           %               20

# evaluate next
// inhibition lookup, compound = CCCCC(Sc1nc2ccccc2c(=O)n1C1CCCCC1)C(=O)N1CCC(C(N)=O)CC1 (centres undefined) , result: 17

---

For each entry below, report its pIC50 value.
# tested-target: Serine/threonine-protein kinase Chk1 (Homo sapiens)
# Sequence (O14757 whole entry): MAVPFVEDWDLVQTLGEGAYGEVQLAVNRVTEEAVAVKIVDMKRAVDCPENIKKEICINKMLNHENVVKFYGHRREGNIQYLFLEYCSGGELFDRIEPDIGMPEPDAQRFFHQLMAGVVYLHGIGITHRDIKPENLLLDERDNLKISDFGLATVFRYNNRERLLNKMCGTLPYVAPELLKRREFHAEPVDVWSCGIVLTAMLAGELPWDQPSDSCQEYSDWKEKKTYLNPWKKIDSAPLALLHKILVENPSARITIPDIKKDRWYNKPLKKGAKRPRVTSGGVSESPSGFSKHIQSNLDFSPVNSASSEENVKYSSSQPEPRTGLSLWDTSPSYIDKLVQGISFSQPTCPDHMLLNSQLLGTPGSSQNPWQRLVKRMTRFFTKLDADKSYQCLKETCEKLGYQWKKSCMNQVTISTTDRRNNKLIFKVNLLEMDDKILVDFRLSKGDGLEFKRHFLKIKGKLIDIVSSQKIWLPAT
# protocol: Inhibition of C-terminal 6-His tagged human Chk1 by HTRF assay in presence of 0.1 mM ATP
One number for each entry, as −log10 of the molar value.

Here is how some compounds turned out for pIC50.
                                   compound                             tested_target  recorded_number
0  CCCCC(Sc1nc2c(OC)cccc2c(=O)n1-c1cccc(Cl)c1)C(=O)N1CCC(C(N)=O)CC1 (configuration not stated)  Serine/threonine-protein kinase Chk1 (Homo sapiens)             4.68
1  NC(=O)C1CCN(C(=O)C(Sc2nc3ccccc3c(=O)n2-c2cccc(Cl)c2)c2ccccc2)CC1 (configuration not stated)  Serine/threonine-protein kinase Chk1 (Homo sapiens)             4.68
2  CCCCC(Sc1nc2ccccc2c(=O)n1-c1ccccc1)C(=O)N1CCN(c2ccccc2)CC1 (configuration not stated)  Serine/threonine-protein kinase Chk1 (Homo sapiens)             5.48
3  CCCCC(Sc1nc2ccccc2c(=O)n1-c1ccccc1)C(=O)N1CCC(C(N)=O)CC1 (configuration not stated)  Serine/threonine-protein kinase Chk1 (Homo sapiens)             4.77

// pIC50 lookup, compound = CCCCC(Sc1nc2c(C)cccc2c(=O)n1-c1cccc(Cl)c1)C(=O)N1CCC(C(N)=O)CC1 (configuration not stated) , result: 4.77
